- Test system: MCF-7
- METHOD_SUMMARY: MTT cell viability assay, MCF-7
- Format: cell-based
- DETAILS: Homo sapiens, MCF7; MTT, 72-hour incubation; read-out: IC50/μM MCF-7
- Method: Cells were then treated with compound at various concentrations in 0.2 mL media. After the 72-hour incubation period, cells were washed in PBS (3×100 μL), and 10 μL MTT reagent was added with 100 μL fresh media. Cells were then incubated for 4 hr in a humidified chamber at 37° C. with 5% CO2. Insoluble formazan crystals were solubilized by addition of 0.1 mL detergent solution (4 hr at room temp., dark). Resulting colored solutions were then quantified at an absorbance of 570 nm.
# label = 1.0 if IC50 < 0.3 µM else 0.0

stdin: Lab note: confirm whether the reported IC50 for this compound is below 0.3 µM, equality not counting. compound: CCn1c(=O)/c(=C2\Sc3cc(Cl)ccc3N2C)s/c1=C\c1scc[n+]1Cc1ccccc1CO
stdout: 0.0

stdin: Lab note: confirm whether the reported IC50 for this compound is below 0.3 µM, equality not counting. compound: CCn1c(=O)/c(=C2\Sc3ccc(C)cc3N2C)s/c1=C\c1scc[n+]1Cc1ccccc1C
stdout: 1.0

stdin: Lab note: confirm whether the reported IC50 for this compound is below 0.3 µM, equality not counting. compound: CCn1c(=O)/c(=C2\Sc3cc(C)ccc3N2C)s/c1=C\c1scc[n+]1Cc1c(C)cccc1C
stdout: 1.0

stdin: Lab note: confirm whether the reported IC50 for this compound is below 0.3 µM, equality not counting. compound: CCc1ccc2c(c1)S/C(=c1/s/c(=C\c3scc[n+]3Cc3ccccc3Cl)n(CC)c1=O)N2C
stdout: 1.0

stdin: Lab note: confirm whether the reported IC50 for this compound is below 0.3 µM, equality not counting. compound: CCn1c(=O)/c(=C2\Sc3ccc(OC)cc3N2C)s/c1=C\c1scc[n+]1Cc1ccccc1OC
stdout: 0.0

* * *

- Tested on: MCF-7
- METHOD_SUMMARY: MTT cell viability assay, MCF-7
- Assay type: cell-based
- DETAILS: Homo sapiens, MCF7; MTT, 72-hour incubation; read-out: IC50/μM MCF-7
# label = fulfilled if IC50 < 0.2 µM else not fulfilled

Before answering, review these 5 worked examples.
# MOLECULE, DISCRETE_LABEL
data = [
    ("CCn1c(=O)/c(=C2\\Sc3cc(Cl)ccc3N2C)s/c1=C\\c1scc[n+]1Cc1c(C)cccc1C", "not fulfilled"),
    ("CCn1c(=O)/c(=C2\\Sc3cc(SC)ccc3N2C)s/c1=C\\c1scc[n+]1C(C)c1ccccc1 (stereo not shown)", "not fulfilled"),
    ("CCn1c(=O)/c(=C2\\Sc3cc(C)ccc3N2C)s/c1=C\\c1scc[n+]1CCc1ccccc1C", "not fulfilled"),
    ("CCn1c(=O)/c(=C2\\Sc3cc(OC)ccc3N2C)s/c1=C\\c1scc[n+]1Cc1ccsc1C(=O)OC", "fulfilled"),
    ("CCn1c(=O)/c(=C2\\Sc3cc(Cl)ccc3N2C)s/c1=C\\c1scc[n+]1CCc1ccccc1C", "not fulfilled"),
]

stdin: Lab note: confirm whether the reported IC50 for this molecule is below 0.2 µM, equality not counting. molecule: CCn1c(=O)/c(=C2\Sc3cc(C(C)C)ccc3N2C)s/c1=C\c1scc[n+]1Cc1ccccc1C
stdout: fulfilled

stdin: Lab note: confirm whether the reported IC50 for this molecule is below 0.2 µM, equality not counting. molecule: CCn1c(=O)/c(=C2\Sc3ccc(C)cc3N2C)s/c1=C\c1scc[n+]1Cc1c(C)cccc1C
stdout: fulfilled

stdin: Lab note: confirm whether the reported IC50 for this molecule is below 0.2 µM, equality not counting. molecule: CCn1c(=O)/c(=C2\Sc3cc(F)ccc3N2C)s/c1=C\c1scc[n+]1Cc1ccccc1C(=O)O
stdout: not fulfilled

stdin: Lab note: confirm whether the reported IC50 for this molecule is below 0.2 µM, equality not counting. molecule: CCn1c(=O)/c(=C2\Sc3cc(C)ccc3N2C)s/c1=C\c1scc[n+]1CCc1cccc(C(F)(F)F)c1
stdout: not fulfilled

stdin: Lab note: confirm whether the reported IC50 for this molecule is below 0.2 µM, equality not counting. molecule: C=CCn1c(=O)/c(=C2\Sc3ccccc3N2C)s/c1=C\c1scc[n+]1Cc1ccccc1
stdout: not fulfilled

stdin: Lab note: confirm whether the reported IC50 for this molecule is below 0.2 µM, equality not counting. molecule: CCc1ccc2c(c1)S/C(=c1/s/c(=C\c3scc[n+]3Cc3ccccc3OC(F)(F)F)n(CC)c1=O)N2C
stdout: fulfilled

stdin: Lab note: confirm whether the reported IC50 for this molecule is below 0.2 µM, equality not counting. molecule: CCn1c(=O)/c(=C2\SCCN2C)s/c1=C\c1ccccn1
stdout: not fulfilled

* * *

- METHOD_SUMMARY: Solubility
- Type: physicochemical
Recorded solubility for the following compounds
Numeric answer only, unit µM assumed.

# COMPOUND, RECORDED_ENDPOINT, OBS_VALUE
rows = [
    ("CCn1c(=O)/c(=C2\\Sc3cc(Cl)ccc3N2C)s/c1=C\\c1scc[n+]1Cc1ccc(Br)s1.[Cl-] [JG-231, reference compound]", "solubility", 16),
    ("CCn1c(=O)/c(=C2\\Sc3cc(SC)ccc3N2C)s/c1=C\\c1scc[n+]1Cc1ccccc1OC(F)(F)F.[Cl-] [JG-311]", "solubility", 16),
    ("CCn1c(=O)/c(=C2\\Sc3cc(SC)ccc3N2C)s/c1=C\\c1scc[n+]1Cc1ccccc1SC(F)(F)F.[Cl-] [JG-356]", "solubility", 16),
]

stdin: What value of solubility has been recorded for this entry: CCn1c(=O)/c(=C2\Sc3cc(SC)ccc3N2C)s/c1=C\c1scc[n+]1Cc1ccccc1C(F)(F)F.[Cl-] [JG-312]
stdout: 16

stdin: What value of solubility has been recorded for this entry: CCn1c(=O)/c(=C2\Sc3cc(Cl)ccc3N2C)s/c1=C\c1scc[n+]1Cc1ccccc1.[Cl-] [JG-98, reference compound]
stdout: 31

* * *

- Test system: MCF-7
- METHOD_SUMMARY: MTT cell viability assay, MCF-7
- Type: cell-based
- DETAILS: Homo sapiens, MCF7; MTT, 72-hour incubation; read-out: IC50/μM MCF-7
- Description: Cells were then treated with compound at various concentrations in 0.2 mL media. After the 72-hour incubation period, cells were washed in PBS (3×100 μL), and 10 μL MTT reagent was added with 100 μL fresh media. Cells were then incubated for 4 hr in a humidified chamber at 37° C. with 5% CO2. Insoluble formazan crystals were solubilized by addition of 0.1 mL detergent solution (4 hr at room temp., dark). Resulting colored solutions were then quantified at an absorbance of 570 nm.
Recorded IC50 for the following molecules
Numeric answer only, unit µM assumed.

# MOLECULE, IC50 [µM]
measured = [
    ("CCc1ccc2c(c1)S/C(=c1/s/c(=C\\c3scc[n+]3Cc3cc(C)sc3C)n(CC)c1=O)N2C [JG-347]", 0.095),
    ("CCn1c(=O)/c(=C2\\Sc3cc(Br)ccc3N2C)s/c1=C\\c1scc[n+]1Cc1ccccc1Cl [JG-289]", 0.27),
    ("CCn1c(=O)/c(=C2\\Sc3cc(C)ccc3N2C)s/c1=C\\c1scc[n+]1CCc1ccccc1Cl [JG-380]", 0.2),
    ("CCn1c(=O)/c(=C2\\Sc3cc(OC)ccc3N2C)s/c1=C\\c1scc[n+]1Cc1c(C)cccc1C [JG-349]", 0.12),
    ("CCn1c(=O)/c(=C2\\Sc3cc(C)ccc3N2C)s/c1=C\\c1scc[n+]1CCc1cccc(Cl)c1 [JG-382]", 0.59),
    ("CCc1ccc2c(c1)S/C(=c1/s/c(=C\\c3scc[n+]3Cc3ccccc3C)n(CC)c1=O)N2C [JG-296]", 0.1),
    ("CCn1c(=O)/c(=C2\\Sc3cc(OC)ccc3N2C)s/c1=C\\c1scc[n+]1CCc1ccc(Cl)cc1 [JG-396]", 1.7),
    ("CCn1c(=O)/c(=C2\\Sc3cc(SC)ccc3N2C)s/c1=C\\c1scc[n+]1Cc1c(C)cccc1C [JG-355]", 0.28),
]

stdin: What value of IC50 has been recorded for this entry: CCn1c(=O)/c(=C2\Sc3cc(C)ccc3N2C)s/c1=C\c1scc[n+]1CCc1ccc(C(F)(F)F)cc1 [JG-388]
stdout: 0.5

stdin: What value of IC50 has been recorded for this entry: CCn1c(=O)/c(=C2\Sc3cc(OC)ccc3N2C)s/c1=C\c1scc[n+]1CCc1ccccc1OC [JG-397]
stdout: 0.08

stdin: What value of IC50 has been recorded for this entry: CCn1c(=O)/c(=C2\Sc3cc(SC)ccc3N2C)s/c1=C\c1scc[n+]1Cc1ccccc1C [JG-310]
stdout: 0.23

stdin: What value of IC50 has been recorded for this entry: CN1/C(=c2\s/c(=C\c3scc[n+]3Cc3ccccc3)n(C)c2=O)Sc2cc(Cl)ccc21 [JG-281]
stdout: 0.6

stdin: What value of IC50 has been recorded for this entry: CCn1c(=O)/c(=C2\Sc3cc(Cl)ccc3N2C)s/c1=C\c1scc[n+]1CCc1ccc(Cl)cc1 [JG-385]
stdout: 0.69

stdin: What value of IC50 has been recorded for this entry: CCn1c(=O)/c(=C2\Sc3ccc(OC)cc3N2C)s/c1=C\c1scc[n+]1Cc1c(Cl)cccc1Cl [JG-403]
stdout: 0.7

Cited source: patent US10221171B2
